Below is a list of entries, each paired with its recorded EC50 value.
# TESTED ON: hTAS1R1/rTAS1R3 (UniProt Q7RTX1+Q923K1)
# Construct: UniProtKB number Q7RTX1–1); The cDNA coding region of rTAS1R3 was synthesized with optimized-codon usage for human expression; expressed in transfected cells; host or cells: HEK293T/17 (ATCC CRL-11268)
# Sequence (Q7RTX1 21-841): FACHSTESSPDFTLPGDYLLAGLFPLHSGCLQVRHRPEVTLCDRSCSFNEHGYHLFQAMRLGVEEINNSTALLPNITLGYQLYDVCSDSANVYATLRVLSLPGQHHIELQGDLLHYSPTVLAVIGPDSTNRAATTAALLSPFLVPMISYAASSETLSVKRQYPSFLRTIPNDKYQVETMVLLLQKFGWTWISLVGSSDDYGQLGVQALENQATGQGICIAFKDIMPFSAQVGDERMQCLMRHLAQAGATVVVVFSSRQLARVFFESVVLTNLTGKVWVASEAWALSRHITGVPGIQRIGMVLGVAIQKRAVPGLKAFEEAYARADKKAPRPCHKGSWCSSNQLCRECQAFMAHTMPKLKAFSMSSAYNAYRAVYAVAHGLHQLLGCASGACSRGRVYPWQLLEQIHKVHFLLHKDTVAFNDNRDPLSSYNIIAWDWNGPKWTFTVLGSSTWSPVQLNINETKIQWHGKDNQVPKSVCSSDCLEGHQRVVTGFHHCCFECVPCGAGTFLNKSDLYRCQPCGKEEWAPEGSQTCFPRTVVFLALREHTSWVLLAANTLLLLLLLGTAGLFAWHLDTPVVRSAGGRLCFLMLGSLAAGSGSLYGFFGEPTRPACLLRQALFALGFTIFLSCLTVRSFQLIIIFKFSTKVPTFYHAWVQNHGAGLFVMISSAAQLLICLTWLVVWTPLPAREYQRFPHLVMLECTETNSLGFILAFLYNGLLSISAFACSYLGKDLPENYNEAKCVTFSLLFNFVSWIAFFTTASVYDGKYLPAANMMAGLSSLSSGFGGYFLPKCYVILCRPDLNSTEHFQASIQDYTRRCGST
# Sequence (Q923K1 21-858): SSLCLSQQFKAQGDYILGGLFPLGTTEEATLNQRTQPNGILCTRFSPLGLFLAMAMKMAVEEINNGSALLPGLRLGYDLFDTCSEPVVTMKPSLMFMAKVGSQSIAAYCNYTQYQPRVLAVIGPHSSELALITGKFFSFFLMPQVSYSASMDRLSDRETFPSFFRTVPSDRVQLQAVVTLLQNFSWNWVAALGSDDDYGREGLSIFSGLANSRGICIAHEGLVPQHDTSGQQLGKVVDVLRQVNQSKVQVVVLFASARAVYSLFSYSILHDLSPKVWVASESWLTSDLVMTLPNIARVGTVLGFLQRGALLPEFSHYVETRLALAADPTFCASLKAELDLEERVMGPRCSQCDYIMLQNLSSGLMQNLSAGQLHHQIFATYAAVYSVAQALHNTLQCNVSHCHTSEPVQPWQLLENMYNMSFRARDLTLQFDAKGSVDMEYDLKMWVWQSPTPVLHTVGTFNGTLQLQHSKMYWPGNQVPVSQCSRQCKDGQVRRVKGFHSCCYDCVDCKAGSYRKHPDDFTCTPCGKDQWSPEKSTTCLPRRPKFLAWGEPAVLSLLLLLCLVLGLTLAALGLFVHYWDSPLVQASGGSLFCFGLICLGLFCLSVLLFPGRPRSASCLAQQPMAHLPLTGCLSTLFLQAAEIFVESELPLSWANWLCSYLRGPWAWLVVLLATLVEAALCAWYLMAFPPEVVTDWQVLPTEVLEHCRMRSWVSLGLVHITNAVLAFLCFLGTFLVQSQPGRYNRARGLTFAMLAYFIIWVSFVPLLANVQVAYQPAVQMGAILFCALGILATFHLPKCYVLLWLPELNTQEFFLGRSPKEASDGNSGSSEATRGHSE
# MEASUREMENT NOTES: Calcium assay (GCaMP6s, Gα15i2) in transiently transfected HEK293T/17 cells
# Type: cell-based, human, rat
# EXPERIMENTAL CONDITIONS: agonist alone; Fig. 1, Fig. S2
Write the answer as a number in µM, unit excluded.

Example cases with answers are listed next.
>>> df
                                   compound  unit_descriptor  assay_result
0  N[C@@H](CCC(=O)N[C@@H](CS)C(=O)NCC(=O)O)C(=O)O [GSH, γ-L-glutamyl-L-cysteinyl-glycine]               µM          2150
1  N[C@@H](CCC(=O)N[C@@H](CS)C(=O)O)C(=O)O [Glu-Cys, γ-L-Glutamyl-L-cysteine]               µM          3200

Pending compound:
# input compound: CCCC(CCC)NC(=O)c1ccc2c(c1)OCO2 [S807, reference compound] ; wanted: its EC50
1.02

###

# TESTED ON: hTAS1R1 H71L/rTAS1R3 (Homo sapiens, UniProt Q7RTX1, H71L)
# MEASUREMENT NOTES: Calcium assay, hTAS1R1 mutant co-expressed with rTAS1R3
REPORTED METRIC: pEC50
Reminder that pEC50 means the negative base-10 logarithm of the concentration expressed in mol/L.

Observed pEC50 on hTAS1R1 H71L/rTAS1R3 (Homo sapiens, UniProt Q7RTX1, H71L) for N[C@@H](CCC(=O)N[C@@H](CS)C(=O)NCC(=O)O)C(=O)O , please.
2.64

###

# TESTED ON: hTAS1R1 S306A/rTAS1R3 (Homo sapiens, UniProt Q7RTX1, S306A)
# Sequence (Q7RTX1 21-841 S306A): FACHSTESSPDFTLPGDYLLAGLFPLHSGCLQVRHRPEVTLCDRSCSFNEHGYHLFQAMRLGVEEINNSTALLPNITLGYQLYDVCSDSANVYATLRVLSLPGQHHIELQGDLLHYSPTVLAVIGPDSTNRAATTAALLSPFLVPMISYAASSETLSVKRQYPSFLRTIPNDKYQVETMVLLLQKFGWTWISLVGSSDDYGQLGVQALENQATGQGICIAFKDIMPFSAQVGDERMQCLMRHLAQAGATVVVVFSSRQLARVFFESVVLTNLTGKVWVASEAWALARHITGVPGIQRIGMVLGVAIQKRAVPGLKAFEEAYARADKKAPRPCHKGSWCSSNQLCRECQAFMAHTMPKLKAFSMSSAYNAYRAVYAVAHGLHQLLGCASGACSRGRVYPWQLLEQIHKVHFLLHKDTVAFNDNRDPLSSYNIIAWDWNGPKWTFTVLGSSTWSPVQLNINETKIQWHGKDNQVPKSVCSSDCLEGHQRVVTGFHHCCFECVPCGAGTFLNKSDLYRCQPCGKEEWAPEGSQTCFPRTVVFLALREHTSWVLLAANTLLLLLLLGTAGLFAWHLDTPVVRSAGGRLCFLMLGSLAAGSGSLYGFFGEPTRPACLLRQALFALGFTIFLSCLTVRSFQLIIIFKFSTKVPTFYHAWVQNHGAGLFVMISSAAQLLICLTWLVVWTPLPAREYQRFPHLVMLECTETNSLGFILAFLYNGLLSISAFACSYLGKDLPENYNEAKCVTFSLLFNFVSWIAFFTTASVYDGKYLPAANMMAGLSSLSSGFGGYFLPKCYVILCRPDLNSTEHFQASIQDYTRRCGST
# Sequence (Q923K1 21-858 partner): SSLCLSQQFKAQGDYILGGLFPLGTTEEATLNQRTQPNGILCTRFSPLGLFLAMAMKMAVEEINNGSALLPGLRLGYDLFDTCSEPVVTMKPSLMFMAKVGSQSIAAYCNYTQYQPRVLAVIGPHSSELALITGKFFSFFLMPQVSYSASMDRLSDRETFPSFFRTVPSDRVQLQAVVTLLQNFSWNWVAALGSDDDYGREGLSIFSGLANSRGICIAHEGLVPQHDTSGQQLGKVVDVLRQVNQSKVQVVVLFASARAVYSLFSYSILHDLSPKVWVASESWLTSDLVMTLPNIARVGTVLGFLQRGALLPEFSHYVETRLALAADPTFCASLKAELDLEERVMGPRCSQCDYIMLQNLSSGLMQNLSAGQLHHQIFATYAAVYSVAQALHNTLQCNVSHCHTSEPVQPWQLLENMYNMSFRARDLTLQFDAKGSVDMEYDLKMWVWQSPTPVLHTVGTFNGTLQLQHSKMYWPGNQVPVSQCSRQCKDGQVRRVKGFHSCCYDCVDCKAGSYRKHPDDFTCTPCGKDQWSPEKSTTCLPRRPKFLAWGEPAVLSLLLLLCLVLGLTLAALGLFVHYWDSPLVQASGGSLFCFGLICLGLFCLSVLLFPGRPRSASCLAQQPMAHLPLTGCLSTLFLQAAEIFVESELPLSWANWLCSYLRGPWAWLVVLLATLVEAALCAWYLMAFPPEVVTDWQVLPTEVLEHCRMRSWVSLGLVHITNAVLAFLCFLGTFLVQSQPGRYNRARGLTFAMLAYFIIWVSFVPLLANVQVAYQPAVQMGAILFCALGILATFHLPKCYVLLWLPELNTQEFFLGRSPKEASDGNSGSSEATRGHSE
# MEASUREMENT NOTES: Calcium assay, hTAS1R1 mutant co-expressed with rTAS1R3
REPORTED METRIC: EC50

Observed EC50 on hTAS1R1 S306A/rTAS1R3 (Homo sapiens, UniProt Q7RTX1, S306A) for N[C@@H](CCC(=O)N[C@@H](CS)C(=O)NCC(=O)O)C(=O)O , please.
> 30 mM
